# EXPERIMENT DESCRIPTION: chemical genetic growth profiling, strain panel (AID 1159580);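 also: tested at 20 µM; growth read once vehicle control cultures reached saturation at 30 °C; 1 = growth at the plate median or of vehicle wells; lower values mean less growth of the strain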
# CONDITION DESCRIPTION: S. cerevisiae deletion strains, growth OD, locus YDR162C, strain NBP2, active compounds read low
Among all 5,500 compounds or so, about 2,000 (36%) were called active. About 18% were inconclusive and are not listed. The list shows a part of the results.
QUANTITY: normalized growth

COMPOUND	QUANTITY	ENDPOINT RESULT
CC(=O)N[C@@H](CS)C(=O)O	normalized growth	1.02
C=CCSCC1Nc2cc(Cl)c(S(N)(=O)=O)cc2S(=O)(=O)N1 (stereo not given)	normalized growth	1.02
NC(N)=NS(=O)(=O)c1ccc(N)cc1	normalized growth	1.01
C[C@@H]1C(=O)OC2[C@H](O)C34[C@@H]5OC(=O)[C@@]3(O[C@@H]3OC(=O)[C@H](O)[C@@]34[C@H](C(C)(C)C)[C@H]5O)[C@]21O (stereo not given in full)	normalized growth	0.987
COc1cc2c(cc1OC)C1Cc3ccc(OC)c(OC)c3CN1CC2 (stereo not given)	normalized growth	1.06

---

// normalized growth lookup, one value per entry
# EXPERIMENT DESCRIPTION: chemical genetic growth profiling, strain panel (AID 1159580);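 also: tested at 20 µM; growth read once vehicle control cultures reached saturation at 30 °C; 1 = growth at the plate median or of vehicle wells; lower values mean less growth of the strain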
# CONDITION DESCRIPTION: S. cerevisiae deletion strains, growth OD, locus YOR083W, strain WHI5, active compounds read low
Out of some 5,500 compounds screened, about 2,000 (36%) were called active. Another 18% or so got no clear call; they are omitted. The list shows a part of the results.
QUANTITY: normalized growth

> print(dat)
                                   compound           quantity  endpoint.result
1  COc1cc([C@@H]2c3cc4c(c(O)c3C[C@H]3COC(=O)[C@@H]32)OCO4)cc(OC)c1OC  normalized growth             1.01
2  COc1ccc2c(c1OC)C(=O)OC2[C@H]1c2c(cc3c(c2OC)OCO3)CCN1C (stereo partly drawn)  normalized growth            0.953
3  N[C@@H](CC(=O)N1CCn2c(nnc2C(F)(F)F)C1)Cc1cc(F)c(F)cc1F  normalized growth             1.01

---

# EXPERIMENT DESCRIPTION: chemical genetic growth profiling, strain panel (AID 1159580);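 also: tested at 20 µM; growth read once vehicle control cultures reached saturation at 30 °C; 1 = growth at the plate median or of vehicle wells; lower values mean less growth of the strain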
# CONDITION DESCRIPTION: S. cerevisiae deletion strains, growth OD, locus YGL248W, strain PDE1
Hit rate of the full screen: of about 5,500 compounds, about 2,000 (36%) were called active. Another 18% or so got no clear call; they are omitted. No stated cut-off is given here; in the data, active means normalized growth mostly below about 0.91 (no sharp cut-off); inconclusive means no clear call, values can overlap the other calls; inactive means mostly above about 0.92. Some of the results follow.
Outcome codes: 1.0 = active, 0.0 = inactive

MOLECULE	ASSIGNED CATEGORY
CC1C[C@H]2CC(=O)[C@H]3CCCN4CCC[C@H]2[C@]34C1 (some centres not stated)	0.0
O=C(Cn1ccnc1[N+](=O)[O-])NCCO	0.0
CCNC(=O)CC[C@H](N)C(=O)O	0.0
COC(=O)C[C@H]1C(C)(C)C(=O)[C@@H]2CC3=C(CC[C@]4(C)C3=CC(=O)O[C@H]4c3ccoc3)[C@@]1(C)C2=O	0.0
O=C(O)CN1C(=O)c2cccc3cccc(c23)C1=O	0.0
NC[C@@H]1CC[C@@H](N)[C@@H](O[C@H]2[C@H](O)[C@@H](O[C@H]3O[C@H](CO)[C@@H](O)[C@H](N)[C@H]3O)[C@H](N)C[C@@H]2N)O1	0.0
CCCCN(CCCC)CCCOC(=O)c1ccc(N)cc1	0.0
O=C(O)c1cc2cc(Cc3cccnc3)ccc2o1	0.0
CCCCOC(=O)c1ccccc1C(=O)OCc1ccccc1	0.0
CC(C(=O)O)c1ccc(C(=O)c2cccs2)cc1 (configuration not stated)	0.0
O=C1[C@H](CCC(O)c2ccc(F)cc2)[C@@H](c2ccc(O)cc2)N1c1ccc(F)cc1 (some centres not stated)	0.0
COC(=O)C(C)c1ccc(C(=O)c2cccs2)cc1 (configuration not stated)	0.0
O=C1CC2OCC=C3CN4CC[C@]56c7ccccc7N1C5[C@H]2[C@H]3CC46 (some centres not stated)	0.0
CCCCCCOc1ccccc1C(N)=O	1.0
CC1(C)O[C@@H]2CC3C4CCC5=CC(=O)CCC5(C)C4(F)C(O)CC3(C)[C@]2(C(=O)CCl)O1 (some centres not stated)	0.0
Cc1cc(-c2ccccc2)nnc1NCCN1CCOCC1	0.0
O=C1OC(c2ccc(O)cc2)(c2ccc(O)cc2)c2ccccc21	0.0
CCN(CC)C(=O)c1cccc(C)c1	0.0
CCCCOC(=O)c1ccccc1C(=O)OCCCC	0.0
C[C@@H]1C(=O)OC2[C@H](O)C34[C@@H]5OC(=O)[C@@]3(O[C@@H]3OC(=O)[C@H](O)[C@@]34[C@H](C(C)(C)C)[C@H]5O)[C@]21O (some centres not stated)	0.0
COC(=O)C(O)c1ccccc1 (configuration not stated)	0.0
CCCCNc1ccc(C(=O)OCCN(C)C)cc1	0.0

---

# EXPERIMENT DESCRIPTION: chemical genetic growth profiling, strain panel (AID 1159580);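 also: tested at 20 µM; growth read once vehicle control cultures reached saturation at 30 °C; 1 = growth at the plate median or of vehicle wells; lower values mean less growth of the strain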
# CONDITION DESCRIPTION: S. cerevisiae deletion strains, growth OD, locus YDR162C, strain NBP2, active compounds read low
In all, about 5,500 compounds went through this assay and about 2,000 (36%) were called active. About 18% were inconclusive and are not listed. This is one part of the list.
QUANTITY: normalized growth

> print(dat)
                                    molecule           quantity  endpoint.result
 1  CC1=CC2C(CC1=O)C(C)=CCC2C(C)C (stereo not given)  normalized growth             0.92
 2                    O=C1NC(=O)C(=O)C(=O)N1  normalized growth             1.02
 3  C=C1CCC(OC(C)=O)/C(C)=C/C[C@@H]2[C@@H]1CC2(C)C (stereo not given in full)  normalized growth            0.997
 4  O=C1[C@H](CCC(O)c2ccc(F)cc2)[C@@H](c2ccc(O)cc2)N1c1ccc(F)cc1 (stereo not given in full)  normalized growth                1
 5  COC(=O)C[C@H]1C(C)(C)C(=O)[C@@H]2CC3=C(CC[C@]4(C)C3=CC(=O)O[C@H]4c3ccoc3)[C@@]1(C)C2=O  normalized growth             1.01
 6                        Cc1cccc(C(=O)O)c1O  normalized growth             1.02
 7                  CC(=O)Oc1c(C)cccc1C(=O)O  normalized growth                1
 8  CC(C(=O)O)c1ccc(C(=O)c2cccs2)cc1 (stereo not given)  normalized growth             1.01
 9  C=C1CCC(=O)C(C)CCC2C1CC2(C)C (stereo not given)  normalized growth             1.06
10                CC(=O)OCC[C@H](C)CCC=C(C)C  normalized growth             1.01
11          Cc1ccc(Cl)c(Nc2ccccc2C(=O)O)c1Cl  normalized growth            0.794
12                CC(=O)OCC(COC(C)=O)OC(C)=O  normalized growth             1.01
13  CC(=O)OCC(OC(C)=O)C(OC(C)=O)C(OC(C)=O)C(OC(C)=O)C(COC(C)=O)OC(C)=O (stereo not given)  normalized growth             1.03
14  NC[C@@H]1CC[C@@H](N)[C@@H](O[C@H]2[C@H](O)[C@@H](O[C@H]3O[C@H](CO)[C@@H](O)[C@H](N)[C@H]3O)[C@H](N)C[C@@H]2N)O1  normalized growth            0.967
15  C#CCCCCCCCCCCCC(=O)CC(O)COC(C)=O (stereo not given)  normalized growth            0.642
16                       COC(=O)C1=CCCN(C)C1  normalized growth            0.991
17  C=C1CCC(C2CC(=O)OC2=O)C(=O)CCC2C1CC2(C)C (stereo not given)  normalized growth                1
18               Cc1cccc(Nc2ccccc2C(=O)O)c1C  normalized growth            0.806
19           CC(C)NC[C@H](O)COc1cccc2ccccc12  normalized growth                1
20  CC(C)NCC(O)c1cc(O)cc(O)c1 (stereo not given)  normalized growth             1.01
21  O=C1CC2OCC=C3CN4CC[C@]56c7ccccc7N1C5[C@H]2[C@H]3CC46 (stereo not given in full)  normalized growth             1.01
22  CC1(C)O[C@@H]2CC3C4CCC5=CC(=O)CCC5(C)C4(F)C(O)CC3(C)[C@]2(C(=O)CCl)O1 (stereo not given in full)  normalized growth            0.963
23  O=C(O)c1ccccc1-c1c2cc(Br)c(=O)cc-2oc2[c]([Hg])c(O)c(Br)cc12  normalized growth            0.736
24             COc1c2ccoc2c(OC)c2oc(=O)ccc12  normalized growth            0.884
25    COC(=O)C(O)c1ccccc1 (stereo not given)  normalized growth            0.975

Source: PubChem BioAssay AID1159580
